Test: qHTS assay to identify aromatase inhibitors - cell viability counter screen (AID 743084);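 note: cells stimulated with testosterone during compound exposure; nearly all actives have a fitted effect of over 55% in size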
Conditions: MCF-7 aro ERE viability, CellTiter-Fluor, 24 h; series mostly up to 70.3 µM
Records with an inconclusive call do not appear. Calls of active or inactive are those of the source. Calls come from the whole dose curve; as a rule, active = well fitted cell-killing curve with a large enough effect in the repeat runs; inconclusive = weak or mixed curves, or effect the other way; inactive = no such curve, though single readings can be large or run the other way.
Use one of these outcomes when replying: active, inactive

* CC[C@H]1C[C@@H]2C[C@H]3c4[nH]c5ccc(OC)cc5c4CCN(C2)[C@@H]13 | inactive
* CCN | inactive
* CCc1nn(C)c(C(=O)NCc2ccc(C(C)(C)C)cc2)c1Cl | active
* COP(=S)(OC)Oc1cc(Cl)c(Br)cc1Cl | inactive
* CN(C)CCc1c[nH]c2ccc(O)cc12 | inactive
* CCCCCCCCc1ccc(O)cc1 | active

**Q:** How was COc1cccc(C(=O)CCN[C@@H](C)[C@H](O)c2ccccc2)c1 classified in this test?
**A:** inactive
